Listing of recorded IC50 at 48 h by entry.
Experiment: Antiproliferative activity against human L02 cells assessed as inhibition of cell growth incubated for 48 hrs by CCK-8 assay
Assay type: toxicity, cell-based

{"smiles-str": "C[C@]12CC[C@H](O)CC1=CC[C@@H]1[C@@H]2CC[C@]2(C)C(n3cnc4ccccc43)=CC[C@@H]12", "IC50 at 48 h": "> 100 µM"}
{"smiles-str": "CC1(C)C(=O)N(c2ccc(C#N)c(C(F)(F)F)c2)C(=O)N1CCNc1ccc(F)c2ncccc12", "IC50 at 48 h": "> 100 µM"}

###

Experiment: MRT (0 to t) in Sprague-Dawley rat at 50 mg/kg, po by LC-MS/MS analysis
Format: ADME, organism-based
Conditions: in vivo

{"smiles-str": "CC1(C)C(=O)N(c2ccc(C#N)c(C(F)(F)F)c2)C(=O)N1CCNc1ccc(F)c2ncccc12", "MRT last [h]": 3.2}

###

Test: AUC (0 to infinity) in Sprague-Dawley rat at 5 mg/kg, iv by LC-MS/MS analysis
Assay type: ADME, organism-based
Conditions: in vivo

{"smiles-str": "CC1(C)C(=O)N(c2ccc(C#N)c(C(F)(F)F)c2)C(=O)N1CCNc1ccc(F)c2ncccc12", "AUC(0-inf) [ng·h/mL]": 2920}

###

Assay: MRT (0 to infinity) in Sprague-Dawley rat at 50 mg/kg, po by LC-MS/MS analysis
Assay type: ADME, organism-based
Settings: in vivo
readout-kind: MRT inf (h)

{"smiles-str": "CC1(C)C(=O)N(c2ccc(C#N)c(C(F)(F)F)c2)C(=O)N1CCNc1ccc(F)c2ncccc12", "readout-kind": "MRT inf", "readout-units": "h", "endpoint-result": 4.1}

###

Assay: Half life in Sprague-Dawley rat at 5 mg/kg, iv by LC-MS/MS analysis
Assay type: ADME, organism-based
Conditions: in vivo

{"smiles-str": "CC1(C)C(=O)N(c2ccc(C#N)c(C(F)(F)F)c2)C(=O)N1CCNc1ccc(F)c2ncccc12", "readout-units": "h", "half-life": 1.4}

###

Experiment: Half life in Sprague-Dawley rat at 50 mg/kg, po by LC-MS/MS analysis
Format: ADME, organism-based
Details: in vivo
readout-kind: half-life (h)

{"smiles-str": "CC1(C)C(=O)N(c2ccc(C#N)c(C(F)(F)F)c2)C(=O)N1CCNc1ccc(F)c2ncccc12", "readout-units": "h", "endpoint-result": 2.2}

###

Assay: AUC (0 to t) in Sprague-Dawley rat at 5 mg/kg, iv by LC-MS/MS analysis
Format: ADME, organism-based
Conditions: in vivo
readout-kind: AUC(0-t) (ng·h/mL)

{"smiles-str": "CC1(C)C(=O)N(c2ccc(C#N)c(C(F)(F)F)c2)C(=O)N1CCNc1ccc(F)c2ncccc12", "endpoint-result": 2870}

###

Assay: AUC (0 to t) in Sprague-Dawley rat at 50 mg/kg, po by LC-MS/MS analysis
Type: ADME, organism-based
Conditions: in vivo
readout-kind: AUC(0-t) (ng·h/mL)

{"smiles-str": "CC1(C)C(=O)N(c2ccc(C#N)c(C(F)(F)F)c2)C(=O)N1CCNc1ccc(F)c2ncccc12", "readout-kind": "AUC(0-t)", "endpoint-result": 3060}

###

Test: Oral bioavailability in Sprague-Dawley rat at 50 mg/kg by LC-MS/MS analysis
Format: ADME, organism-based
Conditions: in vivo
readout-kind: bioavailability

{"smiles-str": "CC1(C)C(=O)N(c2ccc(C#N)c(C(F)(F)F)c2)C(=O)N1CCNc1ccc(F)c2ncccc12", "readout-kind": "bioavailability", "endpoint-result": "11.9%"}

The origin of these recorded values is ChEMBL document CHEMBL5518238.
